Biological target: UniProt Q9Y6L6
Sequence (Q9Y6L6 1-691): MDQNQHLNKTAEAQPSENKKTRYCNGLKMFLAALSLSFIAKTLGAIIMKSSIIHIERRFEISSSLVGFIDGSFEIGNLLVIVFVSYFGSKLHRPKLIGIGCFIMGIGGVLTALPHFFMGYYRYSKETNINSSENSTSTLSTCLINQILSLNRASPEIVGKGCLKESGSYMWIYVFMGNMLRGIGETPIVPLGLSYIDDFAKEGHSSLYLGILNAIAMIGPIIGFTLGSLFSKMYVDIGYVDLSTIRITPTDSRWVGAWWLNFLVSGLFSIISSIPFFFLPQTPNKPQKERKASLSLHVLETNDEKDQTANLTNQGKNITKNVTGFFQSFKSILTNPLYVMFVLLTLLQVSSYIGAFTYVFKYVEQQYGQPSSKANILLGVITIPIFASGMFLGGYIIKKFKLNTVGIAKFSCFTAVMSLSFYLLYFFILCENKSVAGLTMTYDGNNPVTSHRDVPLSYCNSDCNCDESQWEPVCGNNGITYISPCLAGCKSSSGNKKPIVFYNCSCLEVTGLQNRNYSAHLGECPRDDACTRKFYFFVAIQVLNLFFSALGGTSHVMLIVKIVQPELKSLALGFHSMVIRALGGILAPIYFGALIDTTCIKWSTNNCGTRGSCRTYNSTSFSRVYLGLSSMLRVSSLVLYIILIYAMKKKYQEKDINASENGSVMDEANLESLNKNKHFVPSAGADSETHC
Test: OATP1B1 inhibition assay
Type: cell-based
reportedEndpoint: pIC50
Numbers only, as −log10 of the molar value.

Some solved entries appear below for comparison.
>  <chemicalSmiles>
COc1ccc(-c2cc(=O)c3c(OC)c(OC)c(OC)cc3o2)cc1OC

>  <reportedEndpoint>
pIC50

>  <testResult>
5.10

$$$$
>  <chemicalSmiles>
COc1ccc(-c2cc(=O)c3c(OC)c(OC)c(OC)c(OC)c3o2)cc1

>  <reportedEndpoint>
pIC50

>  <testResult>
5.32

$$$$

Could you now look at the following molecule, please?
Query pIC50 on UniProt Q9Y6L6 for `COc1ccc(-c2cc(=O)c3c(OC)c(OC)c(OC)c(OC)c3o2)cc1OC`
5.68
